- Test system: NCI-H23
- method description: NCI tumour cell line growth inhibition, 48 h
Activity calls are given as the source filed them. No stated cut-off is given here; in the data, active = GI50 up to about 1.1 µM and inactive = higher.
Would you mind telling me the reported GI50 of each entry?

For orientation, consider the following solved cases.
{"compound": "Cc1cn(CC2=NCC(C)(C)N2)c(=O)[nH]c1=O", "target system": "NCI-H23", "GI50": "> 100 µM (inactive)"}
{"compound": "CN1CCCOC(c2ccc([N+](=O)[O-])cc2)O1 (stereo not given)", "target system": "NCI-H23", "GI50": "> 100 µM (inactive)"}
{"compound": "NS(=O)(=O)c1ccc(/N=N/c2cc3ccccc3c(C(=O)O)c2O)cc1", "target system": "NCI-H23", "GI50": "> 47.8 µM (inactive)"}
{"compound": "CCOC(=O)c1c(-c2ccc(OC)cc2)c(C#N)c(=S)n(C2OC(CO)C(O)C(O)C2O)c1-c1ccccc1 (stereo not given)", "target system": "NCI-H23", "GI50": "31.8 µM (inactive)"}
{"compound": "Cc1cccc(C)c1NC(=O)CCc1nnc(S)[nH]1", "target system": "NCI-H23", "GI50": "> 100 µM (inactive)"}
{"compound": "CC1(C)C2CC3C4CC5(Nc6ccccc6C5N41)[C@]3(C)CC2=O (stereo not given in full)", "target system": "NCI-H23", "GI50": "> 50 µM (inactive)"}
{"compound": "CC(C)(C)COC1C2(OCCO2)C2CCC1(C)C2(C)C (stereo not given)", "target system": "NCI-H23", "GI50": "52.5 µM (inactive)"}
{"compound": "COC(=O)C(CC(=O)c1cc2c(cc1I)OCO2)Cc1cc(OC)c(OC)c(OC)c1I (stereo not given)", "target system": "NCI-H23", "GI50": "45.6 µM (inactive)"}

Return reported GI50 values for all items listed beneath this line.
1. COc1ccc(C[C@@H]2OC3(C=CC(=O)CC3Sc3ccccc3)O[C@H]2Cc2ccc(OC)cc2)cc1 (stereo not given in full)
2. CCCCCCCCCCCC1CC(=O)NCCCN(C)CCCCN(C)CCCN1C (stereo not given) [BUDMUNCHIAMINE A]

-- reply
1. 1.71 µM (inactive)
2. 1.73 µM (inactive)

* * *

Would you mind telling me the reported GI50 of each entry?
- Tested on: MOLT-4
- method description: NCI tumour cell line growth inhibition, 48 h
Calls of active or inactive are those of the source. Rule as the data show it: active = GI50 up to about 1.1 µM and inactive = higher.

{"compound": "OC1c2ccccc2C2(O)C1C(c1ccccc1)C(c1ccccc1)C2(O)c1ccccc1 (configuration not stated)", "measured value": "3.98 µM (inactive)"}

Return reported GI50 values for all items listed beneath this line.
1. C(=N\c1ccc(-c2nc3ccccc3[nH]2)cc1)/c1ccc[nH]1
2. Cc1nc(-c2nc(C)c(C(=O)/C=C/c3ccc([N+](=O)[O-])cc3)s2)sc1C(=O)/C=C/c1ccc([N+](=O)[O-])cc1
3. O=C(/C=C/c1ccccc1O)/C=C/c1ccccc1O
4. O=C1C[C@@]23CCC4(CC2CCC[C@H]3O1)OCCO4 (some centres not stated)

-- reply
1. 28.8 µM (inactive)
2. > 100 µM (inactive)
3. 1.26 µM (inactive)
4. > 100 µM (inactive)

Return reported GI50 values for all items listed beneath this line.
1. C/C(=N\O)C1CC2C=C(C#N)C1N(Cc1ccccc1)C2 (configuration not stated)
2. COc1ccc(N2C(=O)c3cc(C)cnc3S2(=O)=O)cc1
3. Fc1ccc(Nc2nnc(-c3ccccn3)s2)cc1
4. CC1C=CN(N(C)C)C2=C1C(=O)c1cnccc1C2=O (configuration not stated)
5. COc1ccc(-c2nc(-c3cnccn3)n(COCCO)n2)cc1
6. Cc1ccnc(NC(=S)Nc2ccccc2Cl)c1

-- reply
> 100 µM (inactive)
> 100 µM (inactive)
> 100 µM (inactive)
1.76 µM (inactive)
> 100 µM (inactive)
> 100 µM (inactive)

Return reported GI50 values for all items listed beneath this line.
1. Cc1nc2c(n1-c1ccccc1)C(=O)c1ccccc1C2=O
2. O=C1/C(=C/c2cccc(Oc3ccccc3)c2)N=C(c2ccccc2)N1c1nc2ccc(Sc3ccccc3)cc2[nH]1
3. NC(=O)/C=C/c1c[nH]c2nccnc12
4. Cc1cn(Cc2ccccc2CCO)c(=S)[nH]c1=O
5. NCc1ccccc1C1CSCSC1
6. COC(=O)c1c[nH]cc1CCCCc1c[nH]cc1C(=O)OC
7. O=C(ON=c1c2ccccc2ccc2ccccc12)c1cc([N+](=O)[O-])cc([N+](=O)[O-])c1
8. Cc1ccc2nc(-c3ccc(-c4nc5ccc(C)cc5o4)c(O)c3)oc2c1

-- reply
["30.3 µM (inactive)", "33.7 µM (inactive)", "0.641 µM (active)", "> 100 µM (inactive)", "> 100 µM (inactive)", "> 100 µM (inactive)", "31.8 µM (inactive)", "> 100 µM (inactive)"]
